Taken from patent US6686350B1.

Biological target: VLA-4 (Homo sapiens, UniProt P05556+P13612)
Construct: endogenous in cells
Sequence (P13612 34-1032): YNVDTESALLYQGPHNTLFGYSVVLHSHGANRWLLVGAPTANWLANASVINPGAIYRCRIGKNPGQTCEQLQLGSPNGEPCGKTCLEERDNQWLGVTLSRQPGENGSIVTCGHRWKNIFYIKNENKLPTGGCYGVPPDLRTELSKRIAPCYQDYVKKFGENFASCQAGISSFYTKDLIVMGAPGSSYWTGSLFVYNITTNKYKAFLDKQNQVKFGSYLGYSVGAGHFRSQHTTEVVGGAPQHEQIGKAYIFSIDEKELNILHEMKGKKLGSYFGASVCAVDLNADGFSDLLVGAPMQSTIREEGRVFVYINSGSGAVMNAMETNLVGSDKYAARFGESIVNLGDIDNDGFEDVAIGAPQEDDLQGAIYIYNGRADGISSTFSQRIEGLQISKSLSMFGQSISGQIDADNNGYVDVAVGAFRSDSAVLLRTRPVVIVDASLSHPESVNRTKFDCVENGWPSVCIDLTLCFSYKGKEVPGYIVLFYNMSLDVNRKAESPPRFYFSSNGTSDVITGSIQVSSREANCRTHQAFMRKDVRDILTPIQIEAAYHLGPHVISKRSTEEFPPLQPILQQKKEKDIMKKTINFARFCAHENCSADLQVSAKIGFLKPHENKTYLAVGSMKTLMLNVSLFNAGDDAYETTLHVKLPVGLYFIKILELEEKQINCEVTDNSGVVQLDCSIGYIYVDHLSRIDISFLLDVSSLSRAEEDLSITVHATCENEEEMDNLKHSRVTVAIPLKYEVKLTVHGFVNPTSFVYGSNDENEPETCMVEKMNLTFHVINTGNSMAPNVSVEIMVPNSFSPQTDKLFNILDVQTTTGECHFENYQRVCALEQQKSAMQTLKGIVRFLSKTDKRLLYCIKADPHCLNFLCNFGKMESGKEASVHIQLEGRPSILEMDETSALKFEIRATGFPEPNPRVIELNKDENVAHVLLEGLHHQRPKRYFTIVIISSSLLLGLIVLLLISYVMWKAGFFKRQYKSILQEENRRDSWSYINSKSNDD
Sequence (P05556 21-798): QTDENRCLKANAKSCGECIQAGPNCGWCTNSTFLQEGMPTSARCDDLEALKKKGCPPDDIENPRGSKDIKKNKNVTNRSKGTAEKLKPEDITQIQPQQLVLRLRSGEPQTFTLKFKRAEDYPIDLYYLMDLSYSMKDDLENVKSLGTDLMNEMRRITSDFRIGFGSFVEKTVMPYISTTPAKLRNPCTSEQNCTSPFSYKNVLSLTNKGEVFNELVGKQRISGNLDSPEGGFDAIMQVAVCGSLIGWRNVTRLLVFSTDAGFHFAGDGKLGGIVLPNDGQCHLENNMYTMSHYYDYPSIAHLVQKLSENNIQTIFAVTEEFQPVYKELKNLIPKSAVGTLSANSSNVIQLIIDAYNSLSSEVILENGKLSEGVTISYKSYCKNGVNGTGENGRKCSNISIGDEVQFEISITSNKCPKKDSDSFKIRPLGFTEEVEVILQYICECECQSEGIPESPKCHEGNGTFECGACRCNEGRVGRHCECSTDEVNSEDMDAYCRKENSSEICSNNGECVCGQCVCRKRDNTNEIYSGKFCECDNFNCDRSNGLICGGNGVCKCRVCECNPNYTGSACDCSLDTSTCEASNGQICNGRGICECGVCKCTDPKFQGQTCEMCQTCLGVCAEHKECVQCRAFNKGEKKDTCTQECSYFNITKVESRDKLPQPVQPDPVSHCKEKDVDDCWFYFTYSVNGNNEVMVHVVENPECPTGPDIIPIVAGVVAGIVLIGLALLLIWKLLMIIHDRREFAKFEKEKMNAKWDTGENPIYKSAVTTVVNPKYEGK
Test: VLA-4 direct binding assay (VCAM-IgG alkaline phosphatase conjugate binding to Jurkat cells)
Settings: Table 1, Structure-Activity; assay and unit inferred; read-out: Act
pIC50: −log10 of the molar value.
Note to self: values exactly at 6 are 1. So pIC50 at or above 6 is 1, below is -1.

Answered examples (3):
COc1cccc(C(=O)N(CCC(=O)O)CC(=O)N(CCC(C)C)CC(=O)Nc2cccc(C(=O)CC(=O)Nc3nccs3)c2)c1 [AX15]: -1
COc1ccc([C@H](CC(=O)O)NC(=O)C(C)CC(=O)Nc2ccc(NC(=O)Nc3ccccc3C)cc2)cc1OC (some centres unmarked) [SX9]: -1
Cc1ccccc1NC(=O)Nc1ccc(CC(=O)Nc2cccc(OC/C=C/C(=O)O)c2)cc1 [RX21]: 1

Prompt line: Does the molecule COc1ccc(C(CC(=O)O)NC(=O)CCC(=O)Nc2ccc(NC(=O)Nc3ccccc3C)cc2)cc1OC (centres unmarked) [SX51] have recorded pIC50 that is 6 or more?
Response line: 1

Prompt line: // query: Cc1ccccc1NC(=O)Nc1ccc(NC(=O)CN(CCC(=O)O)C(=O)CN(CCC(=O)O)C(=O)c2ccccc2)cc1 [AX38]
Response line: 1

Prompt line: What about this molecule? Cc1ccccc1NC(=O)Nc1ccc(CC(=O)Nc2cccc(OCCC(C)C(=O)O)c2)cc1 (centres unmarked) [RX6]
Response line: -1

Prompt line: Entry COc1ccc(CNC(=O)C2=C(C(=O)N[C@@H](CC(=O)O)c3ccc(OC)cc3)CCC2)cc1 [MX2] please
Response line: 1

Prompt line: CC(C)CCN(CC(=O)Nc1ccc(NC(=O)Nc2ccccc2)cc1)C(=O)CN(CCC(=O)O)C(=O)c1ccccc1 [AX33] , same question.
Response line: 1

Prompt line: Then Cc1ccccc1NC(=O)Nc1ccc(NC(=O)CN(CCC(C)C)C(=O)CN(CCC(=O)O)C(=O)CBr)cc1 [AX36] ?
Response line: 1

Prompt line: Another molecule: COc1cccc(C(=O)N(CCC(=O)O)CC(=O)N(CCC(C)C)CC(=O)Nc2ccc(-c3nnc(-c4ccccc4)o3)cc2)c1 [AX5]
Response line: 1
